Each entry below lists one item and its recorded pIC50 value.
- Tested on: MALME-3M
- METHOD DESCRIPTION: NCI-60 screen (SRB), melanoma
- CONDITION LABEL: Homo sapiens
Remember the convention: pIC50 equals -log10 of concentration in molar.

Before answering, review these 3 worked examples.
1. COc1cc(OC)c(S(=O)(=O)N(CCCl)CCCl)cc1C(=O)/C=C/c1cc(OC)c(OC)c(OC)c1 [Compound 18e]    5.14
2. COc1cc(OC)c(S(N)(=O)=O)cc1C(=O)/C=C/c1ccc(Cl)cc1 [Compound 17b]    5.55
3. COc1cc(OC)c(S(N)(=O)=O)cc1C(=O)/C=C/c1ccc(C)cc1 [Compound 17c]    5.07

Query compound follows.
Task: Report pIC50 on MALME-3M for this entry: COc1cc(OC)c(S(N)(=O)=O)cc1C(=O)C=Cc1ccccc1 [Compound 17a]
Output: 4.86

---

- System: DU-145
- METHOD DESCRIPTION: NCI-60 screen (SRB), prostate cancer
- CONDITION LABEL: Homo sapiens, DU-145, read-out: LC50
Each entry below lists one item and its recorded CC50 value.
Please respond with the number in µM and leave the unit unwritten.

Before answering, review these 2 worked examples.
1. COc1cc(OC)c(S(N)(=O)=O)cc1C(=O)/C=C/c1ccc(Cl)cc1 [Compound 17b]    42.2
2. COc1cc(OC)c(S(N)(=O)=O)cc1C(=O)/C=C/c1ccc(C)cc1 [Compound 17c]    65.1

Query compound follows.
Task: Please give measured CC50 of the following entry: COc1cc(OC)c(S(N)(=O)=O)cc1C(=O)C=Cc1ccccc1 [Compound 17a]
Output: 38.1

---

Each entry below lists one item and its recorded CC50 value.
- System: SK-MEL-28
- METHOD DESCRIPTION: NCI-60 screen (SRB), melanoma
- CONDITION LABEL: Homo sapiens, SK-MEL-28, read-out: LC50
# do not omit the unit; it follows the number

Task: Please give measured CC50 of the following entry: COc1cc(OC)c(S(N)(=O)=O)cc1C(=O)C=Cc1ccccc1 [Compound 17a]
Output: 51 µM

Task: Please give measured CC50 of the following entry: COc1cc(OC)c(S(=O)(=O)N(CCCl)CCCl)cc1C(=O)/C=C/c1cc(OC)c(OC)c(OC)c1 [Compound 18e]
Output: 6.88 µM

Task: Please give measured CC50 of the following entry: COc1cc(OC)c(S(N)(=O)=O)cc1C(=O)/C=C/c1ccc(C)cc1 [Compound 17c]
Output: 40.8 µM

Task: Please give measured CC50 of the following entry: COc1cc(OC)c(S(N)(=O)=O)cc1C(=O)/C=C/c1ccc(Cl)cc1 [Compound 17b]
Output: 33.4 µM

---

- Test system: HS 578T
- METHOD DESCRIPTION: NCI-60 screen (SRB), breast cancer
- CONDITION LABEL: Homo sapiens, Hs-578T
METRIC: IC50 (µM)
Please respond with the number in µM and leave the unit unwritten.

1. COc1cc(OC)c(S(N)(=O)=O)cc1C(=O)C=Cc1ccccc1 [Compound 17a]    5.89

Task: Please give measured IC50 of the following entry: COc1cc(OC)c(S(N)(=O)=O)cc1C(=O)/C=C/c1ccc(C)cc1 [Compound 17c]
Output: 3.5

All values here come from paper PMC9604400.
